- measured_on: T1, wild type human CD47 (Acro Biosystems, cat. no. CD7-H5227) (human, UniProt Q08722 19-139)
- T1 construct: Bought protein used as SPR analyte; also called Human CD47 wt; wild-type CD47
- method_description: SPR, IgG captured, CD47 in flow; exp 4;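 further: biacore T200 SPR using IgG from transfected HEK293 supernatants against wild-type human CD47 or its C33G mutein, rates fitted to association and dissociation curves, KD estimated from them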
experimental_readout: kon (M⁻¹ s⁻¹)
Give the value in M⁻¹ s⁻¹ but do not write M⁻¹ s⁻¹ after it.

- binder: "chimeric antibody 108C10A6 (antibody, V domains shown, Chimeric antibody with mouse variable domains; captured through human Fc; also called VH / VL) VH: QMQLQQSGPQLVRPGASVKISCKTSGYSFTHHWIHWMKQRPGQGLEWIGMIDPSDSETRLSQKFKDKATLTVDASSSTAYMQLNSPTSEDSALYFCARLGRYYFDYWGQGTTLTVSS VL: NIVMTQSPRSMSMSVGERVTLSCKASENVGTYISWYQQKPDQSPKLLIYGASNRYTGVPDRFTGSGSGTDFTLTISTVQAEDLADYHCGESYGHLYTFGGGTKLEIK"
  endpoint_unit: "M⁻¹ s⁻¹"
  kon: "1.8e+06"

Could you now look at the following binder, please?
Query: Quickly give me recorded kon for 108VH5.M25 / 108VL1.M5 (antibody, human IgG4 S228P, kappa, V domains shown, Full-length IgG4 (S228P), kappa; also called VH5.M25 VL1.M5) VH: EVQLVQSGAEVKKPGASVKVSCKASGYTFTHHWMHWVRQAPGQGLEWMGMIDASDRETRYAQKFQGRVTMTRDTSTSTVYMELSSLRSEDTAVYYCARLGRYYFDYWGQGTLVTVSS VL: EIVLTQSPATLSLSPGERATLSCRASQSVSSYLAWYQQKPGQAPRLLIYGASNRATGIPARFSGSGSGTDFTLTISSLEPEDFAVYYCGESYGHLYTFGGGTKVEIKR
Response: 450000
